# Test system: Fibroblast
# assay.overview: Multiplex assay against human fibroblast
# Assay type: toxicity, cell-based
# condition.details: 48 h, 1 µM, compound concentration 1 uM, replicate 1
For each of the molecules below, state its Population Apoptotic (%).
Numbers only, in %.

Illustrative cases are given below, each with its answer.
[ask] Please give measured Population Apoptotic (%) of the following entry: Cc1cn(-c2cc(NC(=O)c3ccc(C)c(Nc4nccc(-c5cccnc5)n4)c3)cc(C(F)(F)F)c2)cn1
[reply] 67

[ask] Please give measured Population Apoptotic (%) of the following entry: O=C(Nc1ccc(-n2nc(-c3cccnc3)cc2C(F)(F)F)cn1)c1ccc(-c2ccccc2)c(F)c1
[reply] 64

[ask] Please give measured Population Apoptotic (%) of the following entry: CCOC(=O)c1c(C)[nH]c2ccc3c(c12)CN1CCc2cc(OC)ccc2C1O3 (stereo unspecified)
[reply] 64

[ask] Please give measured Population Apoptotic (%) of the following entry: CCCS(=O)(=O)c1nc(NC2CC2)cc(-c2ccc3c(ccn3C3CC(C)(C)NC(C)(C)C3)c2)n1
[reply] 58

Would you be so kind as to report Population Apoptotic (%) for each listed record?
1. COc1cc(N2CCN(C)CC2)ccc1Nc1ncc2c(n1)N(C)c1ccccc1C(=O)N2C
2. S=C(NCCCc1c[nH]cn1)NCCCN(Cc1ccc(Cl)c(Cl)c1)c1ccc(Br)cn1
3. CCc1cccc(CC)c1NC(=O)c1nn(C)c2c1CCc1cnc(Nc3ccc(C(=O)NC4CCN(C)CC4)cc3OC(F)(F)F)nc1-2

[reply]
1. 54
2. 57
3. 67

Would you be so kind as to report Population Apoptotic (%) for each listed record?
1. CN1CCC(=C2c3ccccc3CC(=O)c3sccc32)CC1.O=C(O)/C=C/C(=O)O [KETOTIFEN FUMARATE]
2. O=C(Cc1ccc(-c2ccc(OCCN3CCOCC3)cc2)cn1)NCc1ccccc1
3. CCn1c(=O)c(-c2ccc(-c3cncs3)cc2Cl)cc2cnc(Nc3ccc(N4CCN(C)CC4)cc3)nc21
4. Cl.O=c1c2cccn2c2ccccc2n1CCCN1CCC(c2ccc(Cl)cc2)CC1

[reply]
[61, 50, 52, 45]
